Sourced from patent US8653263B2

target: human orexin-2 receptor (Homo sapiens (Human), UniProt O43614); assay: Human orexin 2 receptor radioligand binding ([3H]-EMPA competition); conditions: HEK293 cells stably expressing human orexin-2 receptor; [3H]-EMPA 5 nM final; apparent Ki=IC50/(1+C/Kd), Kd=2 nM; read-out: OR 2 Ki
Sequence (O43614 whole entry): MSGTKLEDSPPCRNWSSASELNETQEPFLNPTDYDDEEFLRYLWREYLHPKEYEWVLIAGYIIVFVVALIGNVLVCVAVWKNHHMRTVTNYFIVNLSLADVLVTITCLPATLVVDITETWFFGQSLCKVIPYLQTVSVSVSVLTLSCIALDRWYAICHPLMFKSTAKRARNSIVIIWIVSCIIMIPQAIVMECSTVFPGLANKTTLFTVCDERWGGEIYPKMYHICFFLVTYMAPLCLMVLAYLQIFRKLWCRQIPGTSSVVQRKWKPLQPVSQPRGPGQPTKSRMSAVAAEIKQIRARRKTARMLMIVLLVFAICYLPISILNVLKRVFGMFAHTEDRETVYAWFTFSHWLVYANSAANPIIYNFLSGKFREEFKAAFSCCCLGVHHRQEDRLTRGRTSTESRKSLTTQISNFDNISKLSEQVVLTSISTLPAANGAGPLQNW
Categorize each record by its Ki using 1: < 200 nM; 2: ≥ 200 nM and < 300 nM; 3: ≥ 300 nM

compound: CN(C)c1cc(N2CC3CN(C(=O)c4c(F)cccc4-n4nccn4)CC3C2)nc(C(F)(F)F)n1 (centres unmarked)
group: 1
//
compound: CCc1ccccc1C(=O)N1CC2CN(c3nc(C)cc(C)n3)CC2C1 (centres unmarked)
group: 2
//
compound: COc1ccnc(N2CC3CN(C(=O)c4ccc(F)c5ccccc45)CC3C2)n1 (centres unmarked)
group: 1
//
compound: Cc1nc(N2CC3CN(C(=O)c4ccccc4-c4nnc[nH]4)CC3C2)nc(C)c1C (centres unmarked)
group: 1
//
compound: Cc1cc(C)nc(N2CC3CN(C(=O)c4cccc(F)c4-c4ncco4)CC3C2)n1 (centres unmarked)
group: 1
//
compound: Cc1nc(=O)cc(N2CC3CN(C(=O)c4nc(C)sc4-c4ccc(F)cc4)CC3C2)[nH]1 (centres unmarked)
group: 3
//
compound: CN(C)c1nc(N2CC3CN(C(=O)c4c(F)cccc4-n4nccn4)CC3C2)cc(C(F)(F)F)n1 (centres unmarked)
group: 1
//
compound: Cc1cc(C)nc(N2CC3CN(C(=O)c4c(C)cccc4Cl)CC3C2)n1 (centres unmarked)
group: 2
//
compound: Cc1cc(N2CC3CN(C(=O)c4cc(F)ccc4-n4nccn4)CC3C2)nc(C(F)(F)F)n1 (centres unmarked)
group: 2
//
compound: CCOc1ccc(OCC)c(C(=O)N2CC3CN(c4nc(C)cc(C)n4)CC3C2)c1 (centres unmarked)
group: 1
//
compound: O=C(c1ccccc1-n1nccn1)N1CC2CN(c3nc(Cl)ncc3F)CC2C1 (centres unmarked)
group: 2
//
compound: COc1ccc(C(=O)N2CC3CN(c4cc(N(C)C)ncn4)CC3C2)c(-n2nccn2)c1 (centres unmarked)
group: 1
//
compound: Cc1cc(C)nc(N2CC3CN(C(=O)c4ncoc4-c4ccccc4)CC3C2)n1 (centres unmarked)
group: 3
//
compound: CCCOc1cccnc1C(=O)N1CC2CN(c3nc(C)cc(C)n3)CC2C1 (centres unmarked)
group: 3
